- study.target: lysine gingipain (Kgp) (Porphyromonas gingivalis (Bacteroides gingivalis))
- assay.method.text: biochemical
- Format: biochemical
- measurement.parameters: IC50 (nM) Kgp, Table 4
quantity: IC50

Some solved cases for reference:
compound | IC50
NCCCCC(NC(=O)C1CCCC1)C(=O)Cn1cncc(F)c1=O (stereo not drawn) [Compound 41a] | > 100 nM
NCCCCC(NC(=O)C1CCCC1)C(=O)COc1c(F)cccc1F (stereo not drawn) | < 0.05 nM

Consider the record given below.
Entry NCCCCC(NC(=O)c1ccccc1)C(=O)C(F)F (stereo not drawn) [Compound 37a] , IC50 reported as > 100 nM

* * *

Collected IC50 values appear next to each entry.
- study.target: lysine gingipain (Kgp) (Porphyromonas gingivalis (Bacteroides gingivalis), UniProt P72194)
- assay.method.text: biochemical
- Format: biochemical
- measurement.parameters: IC50 (nM) Kgp, Table 4
Please reply with the bare figure in nM and do not write the unit itself.

molecule | observed
NCCCCC(NC(=O)c1cccnc1F)C(=O)COc1ccon1 (centres unmarked) [Compound 56a] | 0.1
COC(C)(C)C(=O)NC(CCCCN)C(=O)COc1ccon1 (centres unmarked) [Compound 57a] | 0.09
NCCCCC(NC(=O)c1cccc(OCCCF)c1)C(=O)COc1c(F)cccc1F (centres unmarked) [Compound 30a] | 0.21

Quick note, IC50 for NCCCCC(NC(=O)c1ccnc(F)c1)C(=O)COc1c(F)cccc1F (centres unmarked) [Compound 31a] landed at 0.15

Consider NCCCCC(NC(=O)c1cccnc1F)C(=O)COc1c(F)cccc1F (centres unmarked) [Compound 32a] . Its measured IC50 is 0.08

The recorded IC50 for entry CS(C)(=O)=CC(=O)C(CCCCN)NC(=O)C1CCCC1 (centres unmarked) [Compound 58a] equals 4.66

Consider C[N+](C)(C)c1ccc(C(=O)NC(CCCCN)C(=O)COc2ccon2)cn1 (centres unmarked) [Compound 61a] . Its measured IC50 is 0.43

The molecule listed as NCCCCC(NC(=O)c1cccnc1)C(=O)COc1c(F)ccc(F)c1F (centres unmarked) [Compound 42a] shows IC50 equal to 0.06
